readoutType: logP

The examples below pair each entry with its known result.
{"smiles": "CC(C)(C)N(NC(=O)c1ccccc1)C(=O)c1ccc(I)cc1", "logP": 3.78}
{"smiles": "CC(C)(C)N(NC(=O)c1ccccc1)C(=O)c1ccc(Cl)cc1Cl", "logP": 3.55}
{"smiles": "Cc1ccccc1C(=O)N(NC(=O)c1ccccc1)C(C)(C)C", "logP": 2.75}
{"smiles": "Cc1cc(C)cc(C(=O)N(NC(=O)c2ccccc2)C(C)(C)C)c1", "logP": 3.39}
{"smiles": "CC(C)(C)N(NC(=O)c1ccccc1)C(=O)c1cccc(C#N)c1", "logP": 2.34}
{"smiles": "CC(C)(C)N(NC(=O)c1ccccc1)C(=O)c1ccc(C#N)cc1", "logP": 2.5}

I = CC(C)(C)N(NC(=O)c1ccccc1)C(=O)c1ccccc1[N+](=O)[O-]
II = CC(C)(C)N(NC(=O)c1ccccc1)C(=O)c1cccc(I)c1
Select the item with the higher value of logP from the options I and II listed. Answer = label.
II
(II: 3.72, I: 2.27)

A = COc1ccc(C(=O)N(NC(=O)c2ccccc2)C(C)(C)C)cc1OC
B = CC(C)(C)N(NC(=O)c1ccccc1)C(=O)c1cc(Cl)ccc1Cl
Lab log: flag the item ( A or B ) with the smaller logP figure. Answer by stating the label of the chosen item.
A

----------
readoutType: logP

Look over these answered cases.
{"smiles": "CC(C)(C)N(NC(=O)c1ccccc1)C(=O)c1cccc(C(F)(F)F)c1", "logP": 3.61}
{"smiles": "CC(C)(C)N(NC(=O)c1ccccc1)C(=O)c1ccc(C(F)(F)F)cc1", "logP": 3.77}
{"smiles": "CC(C)(C)N(NC(=O)c1ccccc1)C(=O)c1c(Cl)cccc1Cl", "logP": 2.56}
{"smiles": "CC(C)(C)N(NC(=O)c1ccccc1)C(=O)c1cccc(Cl)c1", "logP": 3.28}
{"smiles": "CC(C)(C)N(NC(=O)c1ccccc1)C(=O)c1ccc(Br)cc1", "logP": 3.66}
{"smiles": "CC(C)(C)N(NC(=O)c1ccccc1)C(=O)c1cccc(F)c1", "logP": 2.78}

P = CC(C)(C)N(NC(=O)c1ccccc1)C(=O)c1ccc(F)cc1
Q = CC(C)(C)N(NC(=O)c1ccccc1)C(=O)c1ccc(Cl)c(Cl)c1
Hi there! Just curious which has the higher logP between P and Q . Mark your selection by writing its label.
Q
(Q: 4.25, P: 2.85)

a = COc1ccccc1C(=O)N(NC(=O)c1ccccc1)C(C)(C)C
b = Cc1cccc(C(=O)N(NC(=O)c2ccccc2)C(C)(C)C)c1C
For a and b , which recorded logP is lower? Returns: label corresponding to the selected item.
a

----------
readoutType: logP

{"smiles": "CC(C)(C)N(NC(=O)c1ccccc1)C(=O)c1ccccc1C(F)(F)F", "measValue": 2.85}
{"smiles": "Cc1ccc(C(=O)N(NC(=O)c2ccccc2)C(C)(C)C)cc1", "measValue": 2.99}
{"smiles": "CC(C)(C)N(NC(=O)c1ccccc1)C(=O)c1ccc(Cl)cc1", "measValue": 3.42}
{"smiles": "CC(C)(C)N(NC(=O)c1ccccc1)C(=O)c1cc(F)c(F)c(F)c1F", "measValue": 3.44}
{"smiles": "CC(C)(C)N(NC(=O)c1ccccc1)C(=O)c1ccccc1F", "measValue": 2.38}
{"smiles": "CC(C)(C)N(NC(=O)c1ccccc1Cl)C(=O)c1ccccc1Cl", "measValue": 2.75}
{"smiles": "Cc1ccc(C)c(C(=O)N(NC(=O)c2ccccc2)C(C)(C)C)c1", "measValue": 3.25}
{"smiles": "CC(C)(C)N(NC(=O)c1ccccc1)C(=O)c1cccc(Br)c1", "measValue": 3.49}
{"smiles": "CC(C)(C)N(NC(=O)c1ccccc1)C(=O)c1ccccc1I", "measValue": 2.83}
{"smiles": "CC(C)(C)N(NC(=O)c1ccccc1)C(=O)c1c(F)c(F)c(F)c(F)c1F", "measValue": 3.25}
{"smiles": "CC(C)(C)N(NC(=O)c1ccccc1)C(=O)c1ccc([N+](=O)[O-])cc1", "measValue": 2.63}
{"smiles": "Cc1cccc(C(=O)N(NC(=O)c2ccccc2)C(C)(C)C)c1", "measValue": 2.79}

----------
readoutType: logP

{"smiles": "CC(C)(C)N(NC(=O)c1ccccc1)C(=O)c1ccccc1Br", "logP": 2.69}
{"smiles": "CCc1ccccc1C(=O)N(NC(=O)c1ccccc1)C(C)(C)C", "logP": 2.96}
{"smiles": "COc1cccc(C(=O)N(NC(=O)c2ccccc2)C(C)(C)C)c1", "logP": 2.56}
{"smiles": "CC(C)(C)N(NC(=O)c1ccccc1)C(=O)c1cccc(Cl)c1Cl", "logP": 3.41}
{"smiles": "Cc1ccc(C(=O)N(NC(=O)c2ccccc2)C(C)(C)C)c(C)c1", "logP": 3.18}
{"smiles": "Cc1ccc(C(=O)N(NC(=O)c2ccccc2)C(C)(C)C)cc1C", "logP": 3.34}
{"smiles": "Cc1c(Cl)cccc1C(=O)N(NC(=O)c1ccccc1)C(C)(C)C", "logP": 3.57}
{"smiles": "CC(C)(C)N(NC(=O)c1ccccc1)C(=O)c1cccc([N+](=O)[O-])c1", "logP": 2.73}
{"smiles": "CC(C)(C)N(NC(=O)c1ccccc1)C(=O)c1c(F)cccc1Cl", "logP": 2.34}
{"smiles": "CC(C)(C)N(NC(=O)c1ccccc1)C(=O)c1ccccc1", "logP": 2.45}
{"smiles": "COc1ccc(C(=O)N(NC(=O)c2ccccc2)C(C)(C)C)cc1", "logP": 2.56}
{"smiles": "CC(C)(C)N(NC(=O)c1cccc(Cl)c1)C(=O)c1ccccc1Cl", "logP": 3.49}
{"smiles": "CC(C)(C)N(NC(=O)c1ccccc1)C(=O)c1c(F)cccc1F", "logP": 2.16}
{"smiles": "CSc1ccccc1C(=O)N(NC(=O)c1ccccc1)C(C)(C)C", "logP": 2.6}

Where do these numbers come from? They come from the OPERA property sets (Mansouri et al. 2018).
